# Target System: T1, Human MCSP D3 (human, UniProt Q6UVK1 1582-2224)
# T1 construct: Soluble analyte in SPR; The selection antigen was hu-MCSP(D3 domain)-avi-his; also called hu-MCSP(D3 domain)-avi-his
# T1 sequence: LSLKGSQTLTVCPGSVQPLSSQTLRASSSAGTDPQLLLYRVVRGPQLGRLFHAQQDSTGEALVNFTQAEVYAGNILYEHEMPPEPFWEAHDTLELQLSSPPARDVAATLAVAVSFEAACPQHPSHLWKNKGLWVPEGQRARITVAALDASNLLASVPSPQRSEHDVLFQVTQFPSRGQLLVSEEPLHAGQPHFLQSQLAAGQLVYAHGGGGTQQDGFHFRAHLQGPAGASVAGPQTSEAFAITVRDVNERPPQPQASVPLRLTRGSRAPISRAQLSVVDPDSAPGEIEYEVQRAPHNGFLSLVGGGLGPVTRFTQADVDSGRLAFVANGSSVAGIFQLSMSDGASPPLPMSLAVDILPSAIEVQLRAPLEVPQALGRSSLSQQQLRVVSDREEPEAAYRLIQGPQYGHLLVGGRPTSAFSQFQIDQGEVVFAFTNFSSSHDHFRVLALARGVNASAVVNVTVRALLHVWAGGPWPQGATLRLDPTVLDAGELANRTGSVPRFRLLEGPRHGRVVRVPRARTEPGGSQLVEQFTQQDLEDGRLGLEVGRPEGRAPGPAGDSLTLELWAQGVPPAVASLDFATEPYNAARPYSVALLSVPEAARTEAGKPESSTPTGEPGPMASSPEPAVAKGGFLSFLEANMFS
# Experiment Notes: SPR Biacore T200, 25 C, IgG captured on anti-human Fab, MCSP D3 as analyte, 1:1 Langmuir fit
Metric: Kd (nM)
Respond with the bare value in nM.

The value of Kd measured for the binder M4-3 ML2 (C5) (antibody, human IgG1, V domains shown) VH: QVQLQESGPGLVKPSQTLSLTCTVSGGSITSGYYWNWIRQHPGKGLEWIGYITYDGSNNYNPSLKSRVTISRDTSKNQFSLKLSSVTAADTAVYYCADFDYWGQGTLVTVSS VL: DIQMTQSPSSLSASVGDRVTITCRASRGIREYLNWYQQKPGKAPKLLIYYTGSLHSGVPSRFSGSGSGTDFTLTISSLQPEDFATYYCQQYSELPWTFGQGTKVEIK turned out to be 0.8

The value of Kd measured for the binder M4-3 (A7) ML2 (G3) (antibody, human IgG1, V domains shown) VH: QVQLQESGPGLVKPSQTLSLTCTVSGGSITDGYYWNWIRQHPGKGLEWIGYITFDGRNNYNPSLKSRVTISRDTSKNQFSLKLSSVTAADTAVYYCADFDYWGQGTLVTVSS VL: DIQMTQSPSSLSASVGDRVTITCRASQGIRNYLNWYQQKPGKAPKLLIYYTSSLHSGVPSRFSGSGSGTDYTLTISSLQPEDFATYYCQQYSALPWTFGQGTKVEIK turned out to be 0.009

The value of Kd measured for the binder M4-3 (A7) ML2 (antibody, human IgG1, V domains shown) VH: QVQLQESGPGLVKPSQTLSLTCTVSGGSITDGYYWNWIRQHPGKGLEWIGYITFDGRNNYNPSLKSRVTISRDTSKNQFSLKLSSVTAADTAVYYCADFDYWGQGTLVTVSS VL: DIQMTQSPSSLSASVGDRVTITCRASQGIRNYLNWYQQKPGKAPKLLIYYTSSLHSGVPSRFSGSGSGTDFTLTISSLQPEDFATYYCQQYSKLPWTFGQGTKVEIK turned out to be 7.1
